Cited source: PubChem BioAssay AID743417

Test system: Clone20 osteoblast Shn3 3'UTR firefly luciferase, 24 h
experiment_summary: Shn3 3'UTR reporter inhibitors, dose response, cell-based, Clone20 osteoblasts, luminescence, dry powder, set 2 (AID 743417)
Results filed as inconclusive are left out.
measure: AC50

Response field AC50 (Clone20 osteoblast Shn3 3'UTR firefly luciferase, 24 h) for item `O=c1cc(-c2ccc(O)cc2)oc2ccc3ccccc3c12` : 5.41 µM

Reported AC50 (Clone20 osteoblast Shn3 3'UTR firefly luciferase, 24 h) for entry `CNS(=O)(=O)c1cccc(C(=O)OCc2cc(C(C)=O)ccc2OC)c1` is 11.2 µM

AC50 on Clone20 osteoblast Shn3 3'UTR firefly luciferase, 24 h for `O=C1S/C(=C\c2ccc(N3CCOCC3)o2)C(=O)N1Cc1c(F)cccc1Cl` is 6.72 µM

Summary: CN(C)CC(C(=O)c1ccccc1)c1ccccc1 (stereo unspecified) , Clone20 osteoblast Shn3 3'UTR firefly luciferase, 24 h, AC50 = 2.8 µM

Assay Clone20 osteoblast Shn3 3'UTR firefly luciferase, 24 h, sample `c1ccc(CNc2ncnc3ccccc23)cc1` , AC50 read: 1.5 µM

The compound `CCc1nc(N)nc(N)c1-c1ccc(N(C)Cc2ccccc2)c([N+](=O)[O-])c1` , when measured on Clone20 osteoblast Shn3 3'UTR firefly luciferase, 24 h, yielded AC50 of < 0.26 µM

Known value: Clone20 osteoblast Shn3 3'UTR firefly luciferase, 24 h AC50 of the compound `CCCc1nc2ccc(Br)cc2c(=O)n1-c1ccc([N+](=O)[O-])c(C(F)(F)F)c1` equals 15.7 µM

Tested system Clone20 osteoblast Shn3 3'UTR firefly luciferase, 24 h; AC50 recorded for COc1cc(OC)c(OC)cc1/C=C1\CC(C)C/C(=C\c2cc(OC)c(OC)cc2OC)C1=O (stereo unspecified) was 3.22 µM

Field AC50 (system: Clone20 osteoblast Shn3 3'UTR firefly luciferase, 24 h) for entry `COc1ccccc1-c1cc(C(F)(F)F)nc(S(=O)(=O)CCCC(=O)NCc2ccc(F)cc2)n1` = 4.43 µM

Assay Clone20 osteoblast Shn3 3'UTR firefly luciferase, 24 h, sample `C=CC[C@H](CC(=O)N(CCO)Cc1ccccc1)C(=O)NC[C@H](OC(=O)[C@@H](CC=C)Cc1ccc(F)cc1)c1ccccc1` , AC50 read: 10.7 µM

Record for `O=C(CN(C(=O)c1ccccc1Cl)C1CCCCC1)Nc1ccc(Cl)c([N+](=O)[O-])c1` under target or system Clone20 osteoblast Shn3 3'UTR firefly luciferase, 24 h: AC50 reported as 5.1 µM

The compound `CC(C)N(CCC(=O)c1ccc2ccccc2c1)Cc1ccccc1` on Clone20 osteoblast Shn3 3'UTR firefly luciferase, 24 h: AC50 was 4.22 µM

Short answer on Clone20 osteoblast Shn3 3'UTR firefly luciferase, 24 h for c1ccc(Nc2nc(NCC3CCCO3)c3ccccc3n2)cc1 (stereo unspecified) , AC50: 21.7 µM

Let me check: `CCOC(=O)c1ccc(NC(=O)c2nc[nH]c2C(=O)NCCNC(=O)c2[nH]cnc2C(=O)Nc2ccc(C(=O)OCC)cc2)cc1` , system Clone20 osteoblast Shn3 3'UTR firefly luciferase, 24 h, measured AC50 is 5.51 µM

Here `CCN1CCN(Cc2ccc(NC(=O)c3ccc(C)c(NC(=O)C(=O)c4c[nH]c5ccccc45)c3)cc2C(F)(F)F)CC1` was tested on Clone20 osteoblast Shn3 3'UTR firefly luciferase, 24 h, and its AC50 came to 7.49 µM

Record for `O=C(Nc1cc(F)ccc1F)N1CCN(c2ccnc3cc(Cl)ccc23)CC1` under target or system Clone20 osteoblast Shn3 3'UTR firefly luciferase, 24 h: AC50 reported as 22.8 µM

Test item CCCCC(=O)NC(c1ccc(Cl)cc1)c1ccc2cccnc2c1O (stereo unspecified) ; Clone20 osteoblast Shn3 3'UTR firefly luciferase, 24 h; reported AC50 was 0.772 µM

Entry CCC(=O)NC(c1ccc(C)cc1)c1ccc2cccnc2c1O (stereo unspecified) under Clone20 osteoblast Shn3 3'UTR firefly luciferase, 24 h had AC50 of 0.704 µM

AC50 of COc1ccc(C(=O)C(CN2CCOCC2)c2ccccc2)cc1 (stereo unspecified) , assay on Clone20 osteoblast Shn3 3'UTR firefly luciferase, 24 h, is 5.59 µM

So the reported AC50 for `O=C(Nc1cccc(-c2ccc(N3CCCCC3)nn2)c1)C(F)(F)F` , on Clone20 osteoblast Shn3 3'UTR firefly luciferase, 24 h, turned out to be 9.07 µM

Entry COc1ccc(NC(=O)/C(Cl)=C(/Cl)S(=O)Cc2ccc(Cl)cc2)cn1 (stereo unspecified) ; assay system Clone20 osteoblast Shn3 3'UTR firefly luciferase, 24 h; AC50 recorded at 1.34 µM

---

System: Clone20 osteoblast Shn3 3'UTR firefly luciferase, 24 h
experiment_summary: Shn3 3'UTR reporter inhibitors, dose response, cell-based, Clone20 osteoblasts, luminescence, dry powder, set 2 (AID 743417)
Results filed as inconclusive are left out. Calls of active or inactive are those of the source.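 The calls were made as follows: active = compounds lowering the luciferase signal with a fitted half-maximal dose at most twice their top valid dose (cut at about 30 µM in these data); inconclusive = flat fits with moderate signal loss, or poor fits; inactive = the rest.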
# output must be one of yes = active, no = inactive

Q. Lab log entry: `Nc1nonc1C(=O)NCCNCc1cc(Br)ccc1OCc1ccc(F)cc1` — outcome as called in the assay?
A. yes

Q. Hi, sorry to bother you, what did the test record for `CCCN(CCC)S(=O)(=O)c1ccc(C(=O)Nc2nnc(-c3cc(OC)cc(OC)c3)o2)cc1` ?
A. yes

Q. What call does the record list for `COc1ccc([C@H]2CC(=O)C=C(c3ccc(F)cc3OCc3ccccc3)C2)cc1OC` ?
A. yes

Q. Outcome logged for `COc1cc2ccnc(Cc3cccc(OC)c3OC)c2cc1OC` in this assay:
A. yes

Q. Look up the recorded call for `COc1cccc(-c2cc(N3CCN(C(=O)c4ccoc4)CC3)n3nc(-c4cccc(Cl)c4)cc3n2)c1` in this test.
A. yes

Q. // param item: `Nc1nc(N)c2cc(S(=O)(=O)c3cccc(C(F)(F)F)c3)ccc2n1` ; yields the recorded call
A. yes

Q. # lookup: test call for `CC(C)C[C@H](N)c1nnc(S(=O)(=O)Cc2ccc(F)cc2)o1`
A. yes

Q. Status in this test for `Cc1cc(S(=O)(=O)c2ccc([N+](=O)[O-])cn2)ccc1Br` ?
A. yes

Q. Record request — test call for `COCCN(CC(=O)NC1CCCCC1)C(=O)/C=C/C(=O)c1ccc(OC)cc1O`
A. yes

Q. Record lookup: outcome of this test for `Cc1cccc(NC(=O)/C=C/c2ccc([N+](=O)[O-])s2)c1` ?
A. yes

Q. For this molecule, state the assay outcome: `Cc1ccc(NC(=O)CSc2nn(-c3ccccc3)c(=S)s2)cc1S(=O)(=O)N(C)C`
A. yes

Q. Answer briefly: the call reported for CCOC(=O)C1(Cc2ccc(Cl)cc2)CCN(C(C)Cc2ccc(O)c(OC)c2)CC1 (stereo not given) in this assay.
A. yes

Q. Outcome? `O=C(OCCC12CC3CC(CC(C3)C1)C2)c1ccc(NCc2cc(O)ccc2O)cc1`
A. yes

Q. Hi, do you know how `CC(=O)Nc1ccc(NC(=O)c2nc(S(=O)(=O)Cc3cccc(C)c3)ncc2Cl)cc1` came out in this test?
A. yes

Q. Could you please tell me the result logged for `CC1(C)CC(=O)c2c(nc(SCC(=O)Nc3nsc(-c4ccccc4)n3)c(C#N)c2-c2ccccc2)C1` in this assay?
A. no

Q. Hey, what did the test say about `C#CCN(C[C@@H]1[C@@H](OC(=O)NCC2CCCCC2)[C@@H](OC(=O)NCC2CCCCC2)Cn2c(=O)ccc(=O)n21)S(=O)(=O)c1ccc(C)cc1` ?
A. yes

Q. Which outcome was assigned to `COc1ccc(COc2ccccc2C(=O)NCc2ccccc2)cc1F` in this test?
A. yes

Q. How was `CCCCCCNC(=O)O[C@H]1Cn2c(=O)ccc(=O)n2[C@@H]2CN(S(=O)(=O)c3ccc(C)cc3)C[C@]12O` classified in this test?
A. yes

Q. Test call for this molecule, please: `Cc1cc(C(=O)COc2cccnc2[N+](=O)[O-])c(C)n1-c1ccccc1`
A. yes

Q. What outcome does the record of this test show for `COc1ccc(/C=C/C(=O)NC(=S)NNC(=O)c2cnccn2)cc1` ?
A. yes

---

Tested on: Clone20 osteoblast Shn3 3'UTR firefly luciferase, 24 h
experiment_summary: Shn3 3'UTR reporter inhibitors, dose response, cell-based, Clone20 osteoblasts, luminescence, dry powder, set 2 (AID 743417)
Inconclusive results are not listed.
measure: AC50

Briefly, AC50 measured for CC(OC(=O)c1ccc(S(C)(=O)=O)c([N+](=O)[O-])c1)C(=O)NC1C2CC3CC(C2)CC1C3 (stereo unspecified) : 1400 nM

Query Cc1nc(NC(C)c2ccccc2)c2oc3ccccc3c2n1 (stereo unspecified) yields AC50 of 3060 nM

Record `c1ccc(CN2CCN(c3ncnc4c3[nH]c3ccccc34)CC2)cc1` . Reported AC50: 2060 nM

# AC50 (compound: `Cc1c(Cl)sn(-c2ccc(Cl)cc2)c1=O` ) is 728 nM

Field AC50 (entry CC(=O)NC(c1ccc(Cl)cc1Cl)c1ccc2cccnc2c1O (stereo unspecified) ) reads 465 nM

`S=C(NNc1ccnc2cc(Cl)ccc12)Nc1ccc(Cl)cc1Cl` yielded AC50 of 4900 nM
